System: MDA-MB-231 cells
Assay: cells
Details: Homo sapiens, MDA-MB-231, 72 h, read-out: TGI
IC (TGI) by entry:
quantity: IC (TGI)

{"given.smiles": "COc1c(C)cc2c(c1O)[C@@H]1[C@@H]3[C@@H]4SC[C@]5(N[C@@H](C)Cc6c5[nH]c5ccccc65)C(=O)OC[C@@H](c5c6c(c(C)c(OC(C)=O)c54)OCO6)N3[C@@H](C#N)[C@H](C2)N1C", "quantity": "IC (TGI)", "reported.value": "16.7 nM"}
{"given.smiles": "C=CCOC(=O)NC[C@@H]1Cc2c([nH]c3ccc(OC)cc23)[C@@]2(CS[C@@H]3c4c(OC(C)=O)c(C)c5c(c4[C@H](COC2=O)N2[C@@H]3[C@H]3c4c(cc(C)c(OC)c4O)C[C@@H]([C@@H]2C#N)N3C)OCO5)N1", "quantity": "IC (TGI)", "reported.value": "9.04 nM"}

###

System: A549 cells
Assay: cells
Conditions: Homo sapiens, A549, 72 h, read-out: TGI
IC (TGI) by entry:

{"given.smiles": "COc1c(C)cc2c(c1O)[C@@H]1[C@@H]3[C@@H]4SC[C@]5(NCCc6c5[nH]c5ccccc65)C(=O)OC[C@@H](c5c6c(c(C)c(OC(C)=O)c54)OCO6)N3[C@@H](O)[C@H](C2)N1C", "IC (TGI) (nM)": 47.7}
{"given.smiles": "COc1c(C)cc2c(c1O)[C@@H]1[C@@H]3[C@@H]4SC[C@]5(N[C@@H](C)Cc6c5[nH]c5ccccc65)C(=O)OC[C@@H](c5c6c(c(C)c(OC(C)=O)c54)OCO6)N3[C@@H](C#N)[C@H](C2)N1C", "IC (TGI) (nM)": 21.9}
{"given.smiles": "C=CCOC(=O)NC[C@H]1Cc2c([nH]c3ccc(OC)cc23)[C@@]2(CS[C@@H]3c4c(OC(C)=O)c(C)c5c(c4[C@H](COC2=O)N2[C@@H]3[C@H]3c4c(cc(C)c(OC)c4O)C[C@@H]([C@@H]2C#N)N3C)OCO5)N1", "IC (TGI) (nM)": 2.43}
{"given.smiles": "COc1c(C)cc2c(c1O)[C@@H]1[C@@H]3[C@@H]4SC[C@]5(N[C@H](C)Cc6c5[nH]c5ccccc65)C(=O)OC[C@@H](c5c6c(c(C)c(OC(C)=O)c54)OCO6)N3[C@@H](O)[C@H](C2)N1C", "IC (TGI) (nM)": 66.3}

###

Experiment: MTD (Maximum Tolerated Dose) determination, single iv administration
Assay type: in vivo
Conditions: female, mouse, in vivo; mice; iv/SD

{"given.smiles": "COc1c(C)cc2c(c1O)[C@@H]1[C@@H]3[C@@H]4SC[C@]5(NCCc6c5oc5ccccc65)C(=O)OC[C@@H](c5c6c(c(C)c(OC(C)=O)c54)OCO6)N3[C@@H](O)[C@H](C2)N1C", "MTD at 14 days [mg/kg]": 0.5}
{"given.smiles": "COc1c(C)cc2c(c1O)[C@@H]1[C@@H]3[C@@H]4SC[C@]5(N[C@@H](CO)Cc6c5[nH]c5ccccc65)C(=O)OC[C@@H](c5c6c(c(C)c(OC(C)=O)c54)OCO6)N3[C@@H](O)[C@H](C2)N1C", "MTD at 14 days [mg/kg]": 0.25}
{"given.smiles": "COc1c(C)cc2c(c1O)[C@@H]1[C@@H]3[C@@H]4SC[C@]5(N[C@H](C)Cc6c5[nH]c5ccccc65)C(=O)OC[C@@H](c5c6c(c(C)c(OC(C)=O)c54)OCO6)N3[C@@H](O)[C@H](C2)N1C", "MTD at 14 days [mg/kg]": 3}
{"given.smiles": "COc1c(C)cc2c(c1O)[C@@H]1[C@@H]3[C@@H]4SC[C@]5(N[C@H](CO)Cc6c5[nH]c5ccccc65)C(=O)OC[C@@H](c5c6c(c(C)c(OC(C)=O)c54)OCO6)N3[C@@H](O)[C@H](C2)N1C", "MTD at 14 days [mg/kg]": 1}
